molecular target: Estrogen receptor (Homo sapiens); assay: OT_ERa_GFPERaERE_0120: Odyssey Thera (OT) 2-hour HeLa Transcription Induction Assay for Estrogen Receptor (AID 2283382)
Calls of active or inactive are those of the source. Rule for the calls: active = hit-call score of the fitted dose curve at least 0.9, where 1 is the maximum; inconclusive = response in the unintended direction; inactive = score below 0.9.
Pick from active, inactive when you respond.

COMPOUND | GROUP
CCN1CCC2(CC1)COc1cc3c(cc12)N(C(=O)c1ccc(-c2ccc(-c4nnc(C)o4)cc2C)cc1)CC3 | inactive

*Q* # fetch the recorded call for CC(=O)C=C(C)C here
*A* active

*Q* # fetch the recorded call for O=C/C=C/c1ccccc1 here
*A* inactive

*Q* # fetch the recorded call for Cc1ccc(N)cc1Cl here
*A* active

*Q* # fetch the recorded call for CC(C)(C)c1cc(O)ccc1O here
*A* inactive

*Q* # fetch the recorded call for C=CC(=O)OCCCCCC(C)C here
*A* inactive

*Q* # fetch the recorded call for C1CCC(NC2CCCCC2)CC1 here
*A* inactive

*Q* # fetch the recorded call for OCC(O)CCl (stereo not given) here
*A* inactive

*Q* # fetch the recorded call for OCc1ccco1 here
*A* inactive

*Q* # fetch the recorded call for CC(=O)[O][Hg][c]1ccccc1 here
*A* active

*Q* # fetch the recorded call for CCOP(=S)(OCC)SCSP(=S)(OCC)OCC here
*A* active

*Q* # fetch the recorded call for NC(=O)O here
*A* inactive

---

Experiment: ATG_TGFb_CIS: Attagene CIS-FACTORIAL HepG2 Assay for human Transforming Growth Factor (TGF) (AID 2282967)
Conditions: HepG2 Attagene CIS TGFb reporter, mRNA transcription; actives raise or lower the signal
Method: ATG_CIS is a cell-based, multiplexed-readout assay that uses HepG2, a human liver cell line, with measurements taken at 24 hours after chemical dosing in a 24-well plate.ATG_TGFb_CIS is one of 52 assay component(s) measured or calculated from the ATG_CIS assay. […] This assay endpoint, ATG_TGFb_CIS, was analyzed with bidirectional fitting relative to DMSO as the negative control and baseline of activity. […]
Calls of active or inactive are those of the source. Rule for the calls: active = hit-call score of the fitted dose curve at least 0.9, where 1 is the maximum; inactive = score below 0.9.
Pick from True for active, False for inactive when you respond.

These solved cases illustrate the format of a correct answer.
MOLECULE | GROUP
N#Cc1ccccn1 | False
Clc1ccc(C2(Cn3cncn3)CC(Br)CO2)c(Cl)c1 (centres undefined) | False
CC(C#N)CCC#N (centres undefined) | False
CCN(CC)C(=O)Cl | True
CC(C)(c1ccccc1)c1ccc(O)c(C(C)(C)c2ccccc2)c1 | False
Nc1cccc(Cl)c1 | True

*Q* # fetch the recorded call for O=C1C(Cl)=C(Cl)C(=O)c2ccccc21 here
*A* False

*Q* # fetch the recorded call for Nc1ccc(Cl)cc1C(=O)c1ccccc1 here
*A* False

*Q* # fetch the recorded call for N#CN=C(N)N here
*A* False

---

read-out: Transforming growth factor beta 1 (TGFb1), TGFB1 (gene 7040); assay: BSK_KF3CT_TGFb1: BioMAP Diversity Plus: KF3CT Assay for Transforming growth factor beta 1 (TGFb1) Biomarker Activity (AID 2283072); details: primary human keratinocytes with fibroblasts; actives raise or lower the signal
The source made the active and inactive calls. Rule for the calls: active = hit-call score of the fitted dose curve at least 0.9, where 1 is the maximum; inactive = score below 0.9.
Pick from YES = active, NO = inactive when you respond.

These solved cases illustrate the format of a correct answer.
MOLECULE | GROUP
ClC1=C(Cl)[C@]2(Cl)[C@H]3[C@H]([C@H]4C=C[C@H]3C4)[C@@]1(Cl)C2(Cl)Cl | YES
CCOC(=O)/C=C(C)/C=C/C[C@@H](C)CCCC(C)C | YES
O=[N+]([O-])c1ccc(O)c([N+](=O)[O-])c1 | NO
CC(=O)C(Cl)C(=O)N(C)C (centres undefined) | NO
ClCC(Cl)CCl | NO
O=C(O)C(F)(F)C(F)(F)C(F)(F)C(F)(F)C(F)(F)C(F)(F)C(F)(F)C(F)(F)C(F)(F)C(F)(F)F | YES

*Q* # fetch the recorded call for CCOP(=S)(OCC)SCCS(=O)(=O)CC here
*A* NO

*Q* # fetch the recorded call for C[C@@H]1C[C@@H]([C@H](O)CC2CC(=O)NC(=O)C2)C(=O)[C@@H](C)C1 here
*A* YES

*Q* # fetch the recorded call for CC(C)(c1ccccc1)c1ccc(O)c(C(C)(C)c2ccccc2)c1 here
*A* YES

---

read-out: Vascular cell adhesion molecule 1 (VCAM1), VCAM1 (gene 7412); assay: BSK_hDFCGF_VCAM1: BioMAP Diversity Plus: hDFCGF Assay for Vascular cell adhesion molecule 1 (VCAM1) Biomarker Activity (AID 2283065); settings: primary human foreskin fibroblasts; actives raise or lower the signal;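 for AC50: VCAM-1 protein level quantified by ELISA after 24 h chemical exposure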
Calls of active or inactive are those of the source. Rule for the calls: active = hit-call score of the fitted dose curve at least 0.9, where 1 is the maximum; inactive = score below 0.9.
REPORTED_ENDPOINT: AC50

COMPOUND | AC50
Oc1ccc(-c2ccccc2)cc1 | inactive
CC(C)(OO)c1ccccc1 | 28.6 µM (active)
Nc1ccc(-c2ccc(N)c(Cl)c2)cc1Cl | inactive
OCc1ccco1 | inactive
CC(C)(C)c1cc(O)ccc1O | 3.31 µM (active)
Oc1c(I)cc(I)cc1I | inactive
ClC1(Cl)C2(Cl)C3(Cl)C4(Cl)C(Cl)(Cl)C5(Cl)C3(Cl)C1(Cl)C5(Cl)C24Cl (stereo not given) | inactive
NC(=O)O | inactive
COc1cc(OC)nc(NC(=O)NS(=O)(=O)c2ncccc2C(=O)N(C)C)n1 | inactive

*Q* Given the entry Cn1sc(Cl)cc1=O , report its measured AC50.
*A* 23.4 µM (active)

---

read-out: Thrombomodulin, THBD (gene 7056); experiment: BSK_CASM3C_Thrombomodulin: BioMAP Diversity Plus: CASM3C Assay for Thrombomodulin Biomarker Activity (AID 2283051); conditions: primary human coronary artery smooth muscle cells; actives raise or lower the signal;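 note: thrombomodulin protein level measured by ELISA 24 h after dosing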
The source made the active and inactive calls. How the source made its calls: active means hit-call score of the fitted dose curve at least 0.9, where 1 is the maximum; inactive means score below 0.9.
Pick from T (active), F (inactive) when you respond.

These solved cases illustrate the format of a correct answer.
COMPOUND | GROUP
COP(=S)(OC)Oc1ccc(Sc2ccc(OP(=S)(OC)OC)cc2)cc1 | T
CCN1CCC2(CC1)COc1cc3c(cc12)N(C(=O)c1ccc(-c2ccc(-c4nnc(C)o4)cc2C)cc1)CC3 | T
CC12CC1(C)C(=O)N(c1cc(Cl)cc(Cl)c1)C2=O (stereo not drawn) | F
CCNc1nc(NC(C)(C)C)nc(SC)n1 | F
C[C@@H]1C[C@@H]([C@H](O)CC2CC(=O)NC(=O)C2)C(=O)[C@@H](C)C1 | F

*Q* # fetch the recorded call for CCOC(=O)/C=C(C)/C=C/C[C@@H](C)CCCC(C)C here
*A* T

*Q* # fetch the recorded call for CCOP(=S)(OCC)SCCS(=O)(=O)CC here
*A* F

*Q* # fetch the recorded call for COC[C@H](C)N(C(=O)CCl)c1c(C)csc1C here
*A* F

---

read-out: Peroxisomal acyl-coenzyme A oxidase 1 (ACOX1) gene, ACOX1 (gene 51); test: LTEA_HepaRG_ACOX1: Life Technologies and Expression Analysis (LTEA) Assay for Peroxisomal acyl-coenzyme A oxidase 1 (ACOX1) gene using HepaRG (AID 2283467); details: mRNA level, 48 h; actives raise or lower the signal
Activity calls are given as the source filed them. Rule for the calls: active = hit-call score of the fitted dose curve at least 0.9, where 1 is the maximum; inactive = score below 0.9.
REPORTED_ENDPOINT: AC50

Consider the worked cases shown below.
MOLECULE | AC50
CCOP(=S)(OCC)SCSP(=S)(OCC)OCC | inactive
O=C(O)C(F)(F)C(F)(F)C(F)(F)C(F)(F)C(F)(F)C(F)(F)F | inactive
O=[N+]([O-])c1ccc(O)c([N+](=O)[O-])c1 | 13.3 µM (active)
O=C(Nc1ccc2[nH]ccc2c1)c1cc2cc(F)ccc2n1Cc1cccc(F)c1 | 63.1 µM (active)
CC(C)(OO)c1ccccc1 | inactive
CC(C)(c1ccccc1)c1ccc(O)c(C(C)(C)c2ccccc2)c1 | 50 µM (active)
COc1cc(-c2ccc(N)c(OC)c2)ccc1N | inactive
Cc1ccccc1N | inactive

*Q* Given the entry O=C1C2(Cl)C3(Cl)C4(Cl)C(Cl)(Cl)C5(Cl)C3(Cl)C1(Cl)C5(Cl)C24Cl (stereo unspecified) , report its measured AC50.
*A* 0.0893 µM (active)

*Q* Given the entry CCC(=O)C(CC(C)N(C)C)(c1ccccc1)c1ccccc1 (stereo unspecified) , report its measured AC50.
*A* inactive

*Q* Given the entry CCCCCCCCc1ccc(O)cc1 , report its measured AC50.
*A* inactive

---

read-out: Bcl-2 (BID) gene, BID (gene 637); experiment: LTEA_HepaRG_BID: Life Technologies and Expression Analysis (LTEA) Assay for Bcl-2 (BID) gene using HepaRG (AID 2283476); settings: mRNA level, 48 h; actives raise or lower the signal
Calls of active or inactive are those of the source. The calls were made as follows: active = hit-call score of the fitted dose curve at least 0.9, where 1 is the maximum; inactive = score below 0.9.
Pick from 1.0 for active, 0.0 for inactive when you respond.

These solved cases illustrate the format of a correct answer.
MOLECULE_SMILES | GROUP
O=c1[nH]c(=O)[nH]c(=O)[nH]1 | 0.0
CC(C)(C)CC(C)(C)c1ccc(O)cc1 | 1.0
COc1cc(-c2ccc(N)c(OC)c2)ccc1N | 0.0

Consider now this further molecule.
*Q* # fetch the recorded call for O=C(O)C(F)(F)C(F)(F)C(F)(F)C(F)(F)C(F)(F)C(F)(F)C(F)(F)C(F)(F)C(F)(F)C(F)(F)F here
*A* 0.0

Value source: PubChem BioAssay (EPA / NIEHS)
